Tested on: MDA-MB-231
Assay: Inhibition of the growth of MDA-MB 231 human breast cancer cells
Format: functional, cell-based
Measurement Label: IC50 (µM)

Here's what some known entries look like.
### Prompt Reported IC50 for MDA-MB-231, given CCCC1Cc2cc(O)ccc2-c2c(C=O)c3ccc(O)cc3n21 (stereo not given) ?
### Response 0.3

### Prompt Recorded IC50 for CCCCC1Cc2cc(OC)ccc2-c2c(/C=N/C)c3ccc(OC)cc3n21 (stereo not given) with MDA-MB-231, please?
### Response 7.8

### Prompt Record lookup: for MDA-MB-231, what IC50 belongs to CCCCC1Cc2cc(OC)ccc2-c2c(CNCc3ccccc3)c3ccc(OC)cc3n21 (stereo not given) ?
### Response 7

[1] CCCCC1Cc2cc(O)ccc2-c2c(C(C)=O)c3ccc(O)cc3n21 (stereo not given)
[2] CCCCC1Cc2cc(OC)ccc2-c2c(C=O)c3cc(OC)c(OC)cc3n21 (stereo not given)
[3] CCCCC1Cc2cc(O)ccc2-c2c(C#N)c3cc(O)c(O)cc3n21 (stereo not given)
[4] CC[C@]1(O)C[C@@H]2CN(CCc3c([nH]c4ccccc34)[C@@](C(=O)OC)(c3cc4c(cc3OC)N(C)[C@H]3[C@@](O)(C(=O)OC)[C@H](OC(C)=O)[C@]5(CC)C=CCN6CC[C@]43[C@@H]65)C2)C1 [VINBLASTINE]
[5] CCCCC1Cc2cc(OC)ccc2-c2c(/C=N/Cc3ccccc3)c3ccc(OC)cc3n21 (stereo not given)
### Prompt Descending sort on IC50 required. Lab note: record answer as labels in requested order.
### Response 2, 5, 3, 1, 4

[P] CCCCC1Cc2cc(OC)ccc2-c2c(C=O)c3ccc(OC)cc3n21 (stereo not given)
[Q] CCCCC1Cc2cc(OC)ccc2-c2c(C#N)c3ccc(OC)cc3n21 (stereo not given)
### Prompt I'd appreciate it if you could identify which of P and Q has the greater IC50. Respond using the label that marks the chosen record.
### Response P
(P: 8.7 µM, Q: 3.1 µM)

---

Molecular target: Tubulin (Bos taurus) (UniProt Q6B856+Q862L2+Q862F3)
Assay: Inhibition of colchicine binding to tubulin
Format: functional
Conditions: concentration not given here
Measurement Label: inhibition (%)

Study these solved cases before continuing.
### Prompt Item under review: CCCCC1Cc2cc(O)ccc2-c2c(C=O)c3ccc(O)cc3n21 (single isomer, unassigned; (-)) . Reported inhibition?
### Response 22

### Prompt I would be grateful if you could share the reported inhibition for CCCC1Cc2cc(O)ccc2-c2c(C=O)c3ccc(O)cc3n21 (single isomer, unassigned; (+)) .
### Response 53

[1] CCCCC1Cc2cc(O)ccc2-c2c(C=O)c3ccc(O)cc3n21 (stereo in doubt; (+)-6c)
[2] CCCC1Cc2cc(O)ccc2-c2c(C=O)c3ccc(O)cc3n21 (single isomer, unassigned; (-))
### Prompt Could you please tell me which of these two has the higher inhibition: 1 or 2 ? Label of pick, please.
### Response 1

---

Biological target: Tubulin (Bos taurus, UniProt Q6B856+Q862L2+Q862F3)
Test: Inhibition of tubulin polymerization using isolated calf brain at 37 degrees C
Type: functional
Measurement Label: IC50 (µM)

Examples with answers:
### Prompt Missing value: IC50, Tubulin (Bos taurus, UniProt Q6B856+Q862L2+Q862F3), entry CCCCC1Cc2cc(O)ccc2-c2c(C=O)c3cc(O)ccc3n21 (centres undefined) . Fill in?
### Response 19

### Prompt What value of IC50 on Tubulin (Bos taurus, UniProt Q6B856+Q862L2+Q862F3) does CCCCC1Cc2cc(O)ccc2-c2c(C=O)c3cc(O)c(O)cc3n21 (centres undefined) have?
### Response 19

[P] CCCCC1Cc2cc(O)ccc2-c2c(C#N)c3cc(O)c(O)cc3n21 (centres undefined)
[Q] CCCCC1Cc2cc(O)ccc2-c2c(C#N)c3ccc(O)cc3n21 (centres undefined)
### Prompt Exercise: compare P and Q ; which one has the greater IC50? Please reply using the label of the selected record.
### Response P
(P: 25 µM, Q: 13 µM)

---

Tested on: MCF7
Experiment: Inhibition of estrogen receptor positive MCF-7 human breast cancer cell proliferation
Type: functional, cell-based
pIC50: −log10 of the molar value.
Measurement Label: pIC50

### Prompt I am curious: what pIC50 value has been reported for CC/C(=C(\c1ccccc1)c1ccc(OCCN(C)C)cc1)c1ccccc1 [TAMOXIFEN] ?
### Response 6.82

### Prompt Returns the measured pIC50 for the input compound. Input: CCCCC1Cc2cc(O)ccc2-c2c(C#N)c3cc(O)c(O)cc3n21 (stereo unspecified)
### Response 5.57

[1] CCCCC1Cc2cc(O)ccc2-c2c(/C=N/Cc3ccccc3)c3ccc(O)cc3n21 (stereo unspecified)
[2] CCC1Cc2cc(O)ccc2-c2c(C=O)c3ccc(O)cc3n21 (stereo unspecified)
### Prompt Sorting by pIC50 in descending order, would 1 or 2 appear first? Lab note: record the label of whichever item you select.
### Response 1
(1: 6.59, 2: 5.60)

---

Molecular target: Tubulin (Bos taurus, UniProt Q6B856+Q862L2+Q862F3)
Experiment: Inhibition of tubulin polymerization using isolated calf brain
Type: functional
Measurement Label: IC50 (µM)

### Prompt Returns the measured IC50 for the input compound. Input: `COc1cc2c(cc1O)CC[C@@H]1[C@@H]2CC[C@]2(C)[C@@H](O)CC[C@@H]12`
### Response 60

[I] CCCC1Cc2cc(O)ccc2-c2c(C=O)c3ccc(O)cc3n21 (single isomer, unassigned; (+))
[II] CCCCC1Cc2cc(O)ccc2-c2c(C=O)c3ccc(O)cc3n21 (stereo in doubt; (+)-6c)
### Prompt Parameter metric = IC50. Return the lower-valued option from I and II . State the label of the item chosen.
### Response II

---

Tested on: MDA-MB-231
Assay: Inhibition of the growth of MDA-MB 231 human breast cancer cells
Type: functional, cell-based
Measurement Label: IC50 (µM)

### Prompt Look up IC50: CCCCC1Cc2cc(OC)ccc2-c2c(C#N)c3cc(OC)c(OC)cc3n21 (stereo not given)
### Response 2.7

### Prompt I have this compound here, CCCCC1Cc2cc(O)ccc2-c2c(C=O)c3cc(O)c(O)cc3n21 (stereo not given) , and I need its recorded IC50.
### Response 3.2

### Prompt Tell me the measured IC50 of CCCCC1Cc2cc(O)ccc2-c2c(C=O)c3ccc(O)cc3n21 (stereo not given) , please.
### Response 1.4

### Prompt Field request: IC50 | item: CCCCC1Cc2cc(OC)ccc2-c2c(CNC)c3ccc(OC)cc3n21 (stereo not given)
### Response 2.1

### Prompt Would you mind telling me what IC50 value was observed for COc1cc2c(c(OC)c1OC)-c1ccc(OC)c(=O)cc1[C@@H](NC(C)=O)CC2 [COLCHICINE] ?
### Response 0.03

[a] CCCCC1Cc2cc(O)ccc2-c2c(C=O)c3cc(O)ccc3n21 (stereo not given)
[b] CCC1Cc2cc(O)ccc2-c2c(C=O)c3ccc(O)cc3n21 (stereo not given)
### Prompt Given a and b , report the one with the higher recorded IC50. In your reply, give the label of the chosen option.
### Response b
(b: 2.8 µM, a: 0.2 µM)

---

Tested on: MDA-MB-231
Test: Inhibition of the growth of MDA-MB 231 human breast cancer cells
Assay type: functional, cell-based
Measurement Label: IC50 (nM)
Give just the number in nM; leave the unit off.

### Prompt Param item = CCCCC1Cc2cc(O)ccc2-c2c(/C=N/Cc3ccccc3)c3ccc(O)cc3n21 (stereo not given) ; retrieve measured IC50.
### Response 2100

Now let's try a different one.
### Prompt Return reported IC50; argument: `COc1cc([C@@H]2c3cc4c(cc3[C@H](O)[C@H]3COC(=O)[C@H]23)OCO4)cc(OC)c1OC`
### Response 26

---

System: MCF7
Assay: Inhibition of estrogen receptor positive MCF-7 human breast cancer cell proliferation
Type: functional, cell-based
pIC50: −log10 of the molar value.
Measurement Label: pIC50

Answered cases to consult:
### Prompt Quick one: pIC50 for CCCCC1Cc2cc(O)ccc2-c2c(C#N)c3ccc(O)cc3n21 (configuration not stated) ?
### Response 6.27

### Prompt Query: pIC50; subject: CCCC1Cc2cc(O)ccc2-c2c(C=O)c3ccc(O)cc3n21 (configuration not stated)
### Response 6.54

### Prompt So what does the record say about pIC50 for CCCCC1Cc2cc(O)ccc2-c2c(C(C)=O)c3ccc(O)cc3n21 (configuration not stated) ?
### Response 5.60

[P] CCCCC1Cc2cc(O)ccc2-c2c(C=O)c3cc(O)ccc3n21 (configuration not stated)
[Q] CCCCC1Cc2cc(O)ccc2-c2c(C=O)c3ccc(O)cc3n21 (configuration not stated)
### Prompt Hey, between P and Q which has a smaller measured pIC50? Returns: label corresponding to the selected item.
### Response P
(P: 6.19, Q: 6.66)
